target: Dimeric Monkey Ang-2FD conjugated to human IgG1 (monkey (Macca fascicularis)); assay: ELISA, 16.67 nM antibody, Ang-2FD-hFc binding to coated hTie-2-mFc
Sequence (chain, as listed by the source limits assumed): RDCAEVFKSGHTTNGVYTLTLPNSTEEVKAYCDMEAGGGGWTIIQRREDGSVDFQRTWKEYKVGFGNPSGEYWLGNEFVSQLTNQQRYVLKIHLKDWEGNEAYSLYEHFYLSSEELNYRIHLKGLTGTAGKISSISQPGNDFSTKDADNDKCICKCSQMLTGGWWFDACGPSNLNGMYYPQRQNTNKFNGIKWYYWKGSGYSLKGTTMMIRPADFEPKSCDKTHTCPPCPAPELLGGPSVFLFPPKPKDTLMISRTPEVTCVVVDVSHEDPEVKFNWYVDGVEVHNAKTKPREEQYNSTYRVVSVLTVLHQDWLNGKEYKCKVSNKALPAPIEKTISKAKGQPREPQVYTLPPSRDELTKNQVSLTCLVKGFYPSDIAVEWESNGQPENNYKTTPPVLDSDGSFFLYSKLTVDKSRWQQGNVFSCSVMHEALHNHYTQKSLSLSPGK
quantity: Percent Blocking of Ang-2FD Binding to Tie-2 (%)

H2M743N (antibody, V domains shown) VH: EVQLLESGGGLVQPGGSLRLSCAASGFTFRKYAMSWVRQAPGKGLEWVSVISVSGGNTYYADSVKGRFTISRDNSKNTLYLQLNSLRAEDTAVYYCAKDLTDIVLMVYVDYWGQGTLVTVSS VL: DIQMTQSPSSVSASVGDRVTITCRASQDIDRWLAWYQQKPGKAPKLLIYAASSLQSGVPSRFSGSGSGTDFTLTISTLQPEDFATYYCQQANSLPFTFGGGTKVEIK :: 95.1
H1M724N (antibody, V domains shown) VH: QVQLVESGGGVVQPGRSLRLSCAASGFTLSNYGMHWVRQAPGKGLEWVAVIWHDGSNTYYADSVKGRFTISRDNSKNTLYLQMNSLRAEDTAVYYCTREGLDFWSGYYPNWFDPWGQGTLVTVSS VL: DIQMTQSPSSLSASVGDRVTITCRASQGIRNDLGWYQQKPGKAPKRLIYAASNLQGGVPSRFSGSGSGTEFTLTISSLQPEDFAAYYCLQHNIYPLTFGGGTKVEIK :: 95.2
H2M742N (antibody, V domains shown) VH: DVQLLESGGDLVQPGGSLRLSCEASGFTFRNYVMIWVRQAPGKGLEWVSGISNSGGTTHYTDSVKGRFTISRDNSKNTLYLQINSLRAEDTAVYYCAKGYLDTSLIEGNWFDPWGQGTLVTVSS VL: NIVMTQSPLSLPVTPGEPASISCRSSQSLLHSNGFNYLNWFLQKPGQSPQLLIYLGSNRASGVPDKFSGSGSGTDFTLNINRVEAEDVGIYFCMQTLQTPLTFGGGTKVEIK :: 94.1
H2M730N (antibody, V domains shown) VH: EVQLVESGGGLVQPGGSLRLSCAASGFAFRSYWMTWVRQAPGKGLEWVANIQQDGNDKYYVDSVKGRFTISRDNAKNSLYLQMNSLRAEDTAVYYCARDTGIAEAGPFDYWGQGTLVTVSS VL: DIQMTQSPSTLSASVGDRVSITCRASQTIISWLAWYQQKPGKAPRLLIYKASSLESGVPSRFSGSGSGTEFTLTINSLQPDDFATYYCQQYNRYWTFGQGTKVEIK :: 97.3
H1M728N (antibody, V domains shown) VH: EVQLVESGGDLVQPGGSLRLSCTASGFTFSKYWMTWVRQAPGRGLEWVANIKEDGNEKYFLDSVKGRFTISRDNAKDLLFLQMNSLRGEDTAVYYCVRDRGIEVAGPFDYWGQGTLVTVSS VL: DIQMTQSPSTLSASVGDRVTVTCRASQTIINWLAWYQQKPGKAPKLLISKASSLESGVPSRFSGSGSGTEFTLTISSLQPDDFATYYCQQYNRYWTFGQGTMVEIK :: 97.1
H1M732N (antibody, V domains shown) VH: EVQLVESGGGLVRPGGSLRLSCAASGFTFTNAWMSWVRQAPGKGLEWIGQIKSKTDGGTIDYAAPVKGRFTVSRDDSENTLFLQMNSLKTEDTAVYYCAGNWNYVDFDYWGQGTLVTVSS VL: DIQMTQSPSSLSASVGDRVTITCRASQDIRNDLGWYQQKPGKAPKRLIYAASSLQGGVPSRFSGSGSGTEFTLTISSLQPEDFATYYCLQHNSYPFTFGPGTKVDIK :: 95.8
H2M750N (antibody, V domains shown) VH: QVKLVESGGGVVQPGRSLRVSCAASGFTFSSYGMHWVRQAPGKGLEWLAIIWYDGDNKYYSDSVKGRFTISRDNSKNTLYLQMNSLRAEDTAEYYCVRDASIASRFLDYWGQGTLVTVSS VL: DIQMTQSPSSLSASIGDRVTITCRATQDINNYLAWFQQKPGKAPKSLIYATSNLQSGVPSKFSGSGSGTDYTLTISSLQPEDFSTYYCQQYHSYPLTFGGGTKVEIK :: 97.4
